tested on: Ruminococcus gnavus DSM 108212; assay: fold change of Tryptamine concentration vs plate DMSO controls (fold change (ratio)); higher = more amine produced, active = hit call of the paper (significant change in both replicates, either direction); conditions: incubation time: 27 h, anaerobic, 37 °C
Where a name gives a salt, the structure may show the parent alone.
measurementName: fold change of Tryptamine concentration

>  <molecule>
COc1ccc(-c2noc(CC(=O)O)c2-c2ccc(OC)cc2)cc1 [Mofezolac] (20 µM)

>  <recordedValue>
0.979

$$$$
>  <molecule>
NS(=O)(=O)c1cc(C(=O)O)c(NCc2ccco2)cc1Cl [Furosemide] (20 µM)

>  <recordedValue>
1.01

$$$$
>  <molecule>
OC(Cn1cncn1)(Cn1cncn1)c1ccc(F)cc1F [Fluconazole] (20 µM)

>  <recordedValue>
1.01

$$$$
>  <molecule>
CN(C)CCC(c1ccc(Br)cc1)c1ccccn1 (centres undefined) [Brompheniramine maleate] (20 µM)

>  <recordedValue>
1.1

$$$$
>  <molecule>
c1ccc(CN(CC2=NCCN2)c2ccccc2)cc1 [Antazoline hydrochloride] (20 µM)

>  <recordedValue>
1.06

$$$$
>  <molecule>
C=CCSCC1Nc2cc(Cl)c(S(N)(=O)=O)cc2S(=O)(=O)N1 (centres undefined) [Althiazide] (20 µM)

>  <recordedValue>
1.24

$$$$
>  <molecule>
Cc1cccc(C)c1NC(=O)C(C)N (centres undefined) [Tocainide hydrochloride] (20 µM)

>  <recordedValue>
1.02

$$$$
>  <molecule>
CC(C)Cc1ccc(C(C)C(=O)OCc2ccccn2)cc1 (centres undefined) [Ibuprofen Piconol] (20 µM)

>  <recordedValue>
1.1

$$$$
>  <molecule>
Cc1c(C)c2c(c(C)c1O)CCC(C)(C(=O)O)O2 (centres undefined) [Trolox] (20 µM)

>  <recordedValue>
1.02

$$$$
